The origin of these recorded values is patent EP4714978A1.

Molecular target: T1, human DLL3 protein (human, UniProt Q9NYJ7 27-492, limits assumed)
T1 construct: Soluble human DLL3 protein used in BLI; also called Delta-like protein 3
T1 sequence (looked up): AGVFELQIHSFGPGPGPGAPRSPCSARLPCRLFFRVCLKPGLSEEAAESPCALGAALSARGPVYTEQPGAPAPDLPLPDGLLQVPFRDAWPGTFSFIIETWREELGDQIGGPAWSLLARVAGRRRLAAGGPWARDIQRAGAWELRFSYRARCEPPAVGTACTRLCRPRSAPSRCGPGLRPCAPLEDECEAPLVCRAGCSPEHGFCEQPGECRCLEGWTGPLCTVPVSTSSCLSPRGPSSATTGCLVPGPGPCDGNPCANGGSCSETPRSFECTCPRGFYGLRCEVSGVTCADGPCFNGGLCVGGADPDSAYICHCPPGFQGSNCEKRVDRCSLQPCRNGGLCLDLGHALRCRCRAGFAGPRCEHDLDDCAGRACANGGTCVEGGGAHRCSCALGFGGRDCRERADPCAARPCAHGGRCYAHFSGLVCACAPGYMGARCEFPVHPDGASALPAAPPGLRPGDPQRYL
Assay: BLI, scFv-Fc against human DLL3 protein
endpoint: koff (s⁻¹)
Write down the numeric answer in s⁻¹ and omit the unit.

Look over these answered cases.
Ab.55 scFv-human IgG Fc (Fc fusion, Tested as scFv-human IgG Fc; not shown: human IgG Fc) EVVMTQSPLSLPVTLGQPASVSCRSSQSLLYSDGNTYLIWFQQRPGQSPRRLLYKLSTRDSGVPDRFSGSGSGTDFTLKISRVEAEDVGIYYCMQVTHWPYTFGQGTKLEIKGGGGSGGGGSGGGGSQVQLRESGPGLVKPSETLSLTCTVSGDSLKNSYWGWIRQPPGKGLEWIGYIYYSGTSSYNPSLESRVTFSADTSKNQFSLKLSSVTAADTAVYYCSREGSFDVWGRGTLVTVSS: 6.31e-05
Ab.71 scFv-human IgG Fc (Fc fusion, Tested as scFv-human IgG Fc; not shown: human IgG Fc) DIGMTQSPDSLAVSLGERATINCKSSQNVLPNSNKKHYLSWYQQKPGQPPKLLIYLASTRASGVPDRFSGSGSGTDFTLTISSLQAEDVAVYYCQQYYSSPPEWTFGQGTKVEIKGGGGSGGGGSGGGGSQVQLVESGGGVVQPGRSLRLSCVASGFTFSNCGMHWVRQAPGKGLEWVAIIWYDGNIKYYGDSVKGRFTISRDNSKNTLYLQMNSLRVEDTAVYYCGRHDYGGNSFDYWGQGTLVTVSS: 0.000177

Okay, next one:
Suppose we examine the binder Ab.79 scFv-human IgG Fc (Fc fusion, Tested as scFv-human IgG Fc; not shown: human IgG Fc) DVVMTQSPLSLPVTLGQPASISCRSSQSLVYNDGNTYLTWFQQWPGQSPRRLIYKVSNRDSGVPDRFSGSGSGTDFTLKISRVEAEDIGVYHCMQGTHWPYTFGQGTKLEIKGGGGSGGGGSGGGGSQVQVQESGPGLVKSSETLSLTCTVSGGSFRSYYWSWIRQPPGKGLDYIGYMYYSGTTNYNPSLTNRVSISVDTSKNQFSLKLNSVTAADTAVYYCAREGTFDIWGQGTVVTVSS ; what koff value has been reported?
0.000186
